Listed here are compounds together with their documented CC50.
method-summary: in vitro
test-settings: African green monkey

Examples with answers:
Look at this compound and give its reported CC50. COCCN(C)C(=O)[C@@H]1CCCN1c1ncc(-c2c3c(cc4cc(OC)c(OC)cc24)COC3=O)cn1 [Example 33] > 50 µM

Query CCCCN(CCCC)c1ncc(-c2c3c(cc4cc(OC)c(OC)cc24)COC3=O)cn1 [Example 73] next > 50 µM

Now the same for COc1cc2cc3c(c(-c4ccc(N5CCCCC5)nc4)c2cc1OC)C(=O)OC3 [Example 123] > 50 µM

Others:
What measured CC50 goes with COc1cc2cc3c(c(-c4cnc(N5CCC[C@H]5C(=O)NCc5ccc(C)o5)nc4)c2cc1OC)C(=O)OC3 [Example 41] ? > 50 µM

# iterate: COc1cc2cc3c(c(-c4cnc(N(CCO)CCO)nc4)c2cc1OC)C(=O)OC3.Cl [Example 85, hydrochloride] > 50 µM

Likewise for COc1ncc(-c2c3c(cc4cc(OC)c(OC)cc24)COC3=O)cn1 [Example 26] ? > 50 µM

Query COc1cc2cc3c(c(-c4ccc(N(C)C5CC5)nc4)c2cc1OC)C(=O)OC3 [Example 171] next > 50 µM

Similarly, COc1cc2cc3c(c(-c4ccc(N5CCCC(c6cccc(C)c6)C5)nc4)c2cc1OC)C(=O)OC3 (stereo not shown) [Example 202] ? 38.4 µM

How about this compound: CCCN(CCO)c1ncc(-c2c3c(cc4cc(OC)c(OC)cc24)COC3=O)cn1.Cl [Example 77, hydrochloride] > 50 µM

Follow-up entry: CCN(Cc1ccncc1)c1ccc(-c2c3c(cc4cc(OC)c(OC)cc24)COC3=O)cn1 [Example 226] > 50 µM

COc1cc2cc3c(c(-c4ccc(N(C)c5nn(C)cc5C#N)nc4)c2cc1OC)C(=O)OC3.Cl [Example 241] ? > 50 µM

Similarly, COc1cc2cc3c(c(-c4ccc(C(F)(F)F)c5cccnc45)c2cc1OC)C(=O)OC3 [Example 119] ? > 50 µM

Moving on to the next compound: COc1cc2cc3c(c(-c4cc5c(cc4OP(=O)(NC(C)C)c4ccccc4)OCO5)c2cc1OC)C(=O)OC3 (stereo not shown) [Example 281] > 50 µM

Next entry: COc1cc2cc3c(c(-c4cnc(N[C@H]5CC[C@H](O)CC5)nc4)c2cc1OC)C(=O)OC3 [Example 47] > 50 µM

And what about the compound CCNc1ccc(-c2c3c(cc4cc(OC)c(OC)cc24)COC3=O)cc1 [Example 250] ? > 50 µM

Lookup COc1cc2cc3c(c(-c4cc5c(cc4OC(=O)c4ccncc4)OCO5)c2cc1OC)C(=O)OC3 [Example 271] > 50 µM

Here is the next compound: COc1cc2cc3c(c(-c4ccc5cccnc5c4)c2cc1OC)C(=O)OC3 [Example 118] > 50 µM

Let us now turn to COc1cc2cc3c(c(-c4cnc(/N=C\CN(C)C)cn4)c2cc1OC)C(=O)OC3 [Example 29] > 50 µM

Moving on to the next compound: COc1cc2cc3c(c(-c4cnc(N(C)C)nc4)c2cc1OC)C(=O)OC3 [Example 11] > 50 µM

Next compound up: COc1cc2cc3c(c(-c4ccc5oc6ccccc6c5c4)c2cc1OC)C(=O)OC3 [Example 43] > 50 µM

Now the same for COC[C@@H]1CCCN1c1ncc(-c2c3c(cc4cc(OC)c(OC)cc24)COC3=O)cn1.Cl [Example 97, hydrochloride] > 50 µM

And for COc1cc2cc3c(c(-c4ccc(N(C)CC5CC5)nc4)c2cc1OC)C(=O)OC3.Cl [Example 183] ? > 50 µM

These measurements were taken from patent US20240368104A1.
